Test system: Pasteurella multocida
assayName: minimum inhibitory concentration (MIC)
measurementParameters: isolate (source animal id): 153
Recorded minimum inhibitory concentration for the following compounds
measurementName: minimum inhibitory concentration

>>> measuredresult("CC[C@H]1OC(=O)C[C@@H](O)[C@H](C)[C@@H](O[C@@H]2O[C@H](C)[C@@H](O)[C@H](N(C)C)[C@H]2O)[C@@H](CCN2C[C@H](C)C[C@H](C)C2)C[C@@H](C)C(=O)/C=C/C(C)=C/[C@@H]1CO[C@@H]1O[C@H](C)[C@@H](O)[C@@H](OC)[C@H]1OC")
"> 16 µg/mL"
>>> measuredresult("CC1(C)S[C@@H]2[C@H](NC(=O)[C@H](N)c3ccccc3)C(=O)N2[C@H]1C(=O)O")
"≤ 0.25 µg/mL"
>>> measuredresult("CCC[C@@H]1C[C@@H](C(=O)N[C@@H]([C@H]2O[C@H](SC)[C@H](O)[C@@H](O)[C@H]2O)[C@H](C)Cl)N(C)C1")
"> 16 µg/mL"

====

Tested on: Escherichia coli
assayName: minimum inhibitory concentration (MIC)
measurementParameters: isolate (source animal id): 8
Listed next: entries and their corresponding minimum inhibitory concentration.
measurementName: minimum inhibitory concentration

>>> measuredresult("CCN1CCN(c2cc3c(cc2F)c(=O)c(C(=O)O)cn3C2CC2)CC1 [Enrofloxacin]")
"≤ 0.12 µg/mL"
>>> measuredresult("NC[C@@H]1O[C@H](O[C@H]2[C@@H](O)[C@H](O[C@@H]3[C@@H](O)[C@H](N)C[C@H](N)[C@H]3O[C@H]3O[C@H](CN)[C@@H](O)[C@H](O)[C@H]3N)O[C@@H]2CO)[C@H](N)[C@@H](O)[C@@H]1O [Neomycin]")
"32 µg/mL"
>>> measuredresult("CC[C@H]1OC(=O)C[C@@H](O)[C@H](C)[C@@H](O[C@@H]2O[C@H](C)[C@@H](O)[C@H](N(C)C)[C@H]2O)[C@@H](CCN2CCCCC2)C[C@@H](C)C(=O)/C=C/C(C)=C/[C@@H]1CN1CCCCC1 [Tildipirosin]")
"4 µg/mL"

====

Tested on: Histophilus somni
assayName: minimum inhibitory concentration (MIC)
measurementParameters: isolate (source animal id): 258
measurementName: minimum inhibitory concentration

>>> measuredresult("CN[C@@H]1[C@H](O)[C@H](NC)[C@H]2O[C@@]3(O)C(=O)C[C@@H](C)O[C@H]3O[C@@H]2[C@H]1O [Spectinomycin]")
"> 64 µg/mL"
>>> measuredresult("CC1(C)S[C@@H]2[C@H](NC(=O)Cc3ccccc3)C(=O)N2[C@H]1C(=O)O [Penicillin]")
"≤ 0.12 µg/mL"
>>> measuredresult("NC[C@@H]1O[C@H](O[C@H]2[C@@H](O)[C@H](O[C@@H]3[C@@H](O)[C@H](N)C[C@H](N)[C@H]3O[C@H]3O[C@H](CN)[C@@H](O)[C@H](O)[C@H]3N)O[C@@H]2CO)[C@H](N)[C@@H](O)[C@@H]1O [Neomycin]")
"> 32 µg/mL"

====

Test system: Mannheimia haemolytica
assayName: minimum inhibitory concentration (MIC)
measurementParameters: isolate (source animal id): 320
In this section, each of the molecules is paired with its reported minimum inhibitory concentration.
measurementName: minimum inhibitory concentration

>>> measuredresult("CCN1CCN(c2cc3c(cc2F)c(=O)c(C(=O)O)cn3C2CC2)CC1 [Enrofloxacin]")
"≤ 0.12 µg/mL"
>>> measuredresult("CC[C@H]1OC(=O)C[C@@H](O)[C@H](C)[C@@H](O[C@@H]2O[C@H](C)[C@@H](O[C@H]3C[C@@](C)(O)[C@@H](O)[C@H](C)O3)[C@H](N(C)C)[C@H]2O)[C@@H](CC=O)C[C@@H](C)C(=O)/C=C/C(C)=C/[C@@H]1CO[C@@H]1O[C@H](C)[C@@H](O)[C@@H](OC)[C@H]1OC [Tylosin]")
"> 32 µg/mL"
>>> measuredresult("CCCNC[C@]1(O)[C@H](C)O[C@@H](O[C@H]2[C@H](C)[C@@H](O[C@@H]3O[C@H](C)C[C@H](N(C)C)[C@H]3O)[C@](C)(O)C[C@@H](C)CN[C@H](C)[C@@H](O)[C@](C)(O)[C@@H](CC)OC(=O)[C@@H]2C)C[C@@]1(C)OC [Tulathromycin]")
"≤ 8 µg/mL"
>>> measuredresult("CC[C@H]1OC(=O)C[C@@H](O)[C@H](C)[C@@H](O[C@@H]2O[C@H](C)[C@@H](O)[C@H](N(C)C)[C@H]2O)[C@@H](CCN2CCCCC2)C[C@@H](C)C(=O)/C=C/C(C)=C/[C@@H]1CN1CCCCC1 [Tildipirosin]")
"≤ 1 µg/mL"
>>> measuredresult("CC1(C)S[C@@H]2[C@H](NC(=O)Cc3ccccc3)C(=O)N2[C@H]1C(=O)O [Penicillin]")
"≤ 0.12 µg/mL"

====

System: Mannheimia haemolytica
assayName: minimum inhibitory concentration (MIC)
measurementParameters: isolate (source animal id): 287
measurementName: minimum inhibitory concentration (µg/mL)

>>> measuredresult("CN1C[C@@H]2C[C@H]1CN2c1cc2c(cc1F)c(=O)c(C(=O)O)cn2C1CC1")
0.5
>>> measuredresult("CN(C)[C@@H]1C(O)=C(C(N)=O)C(=O)[C@@]2(O)C(O)=C3C(=O)c4c(O)cccc4[C@@](C)(O)[C@H]3C[C@@H]12")
8
>>> measuredresult("C=C[C@]1(C)C[C@@H](OC(=O)CSCCN(CC)CC)[C@]2(C)[C@H](C)CC[C@]3(CCC(=O)[C@H]32)[C@@H](C)[C@@H]1O")
32

====

Here the recorded minimum inhibitory concentration is given for each entry.
Tested on: Pasteurella multocida
assayName: minimum inhibitory concentration (MIC)
measurementParameters: isolate (source animal id): 204
measurementName: minimum inhibitory concentration (µg/mL)

>>> measuredresult("CNC(C)C1CCC(N)C(OC2C(N)CC(N)C(OC3OCC(C)(O)C(NC)C3O)C2O)O1 (stereo not drawn) [Gentamicin]")
4
>>> measuredresult("CC[C@H]1OC(=O)C[C@@H](O)[C@H](C)[C@@H](O[C@@H]2O[C@H](C)[C@@H](O)[C@H](N(C)C)[C@H]2O)[C@@H](CCN2C[C@H](C)C[C@H](C)C2)C[C@@H](C)C(=O)/C=C/C(C)=C/[C@@H]1CO[C@@H]1O[C@H](C)[C@@H](O)[C@@H](OC)[C@H]1OC [Tilmicosin]")
8

====

Below, each entry is listed with its recorded minimum inhibitory concentration.
System: Pasteurella multocida
assayName: minimum inhibitory concentration (MIC)
measurementParameters: isolate (source animal id): 172
measurementName: minimum inhibitory concentration

>>> measuredresult("CCCN1C[C@H](C)[C@@H](O)[C@](C)(O)[C@@H](CC)OC(=O)[C@H](C)[C@@H](O[C@H]2C[C@@](C)(OC)[C@@H](O)[C@H](C)O2)[C@H](C)[C@@H](O[C@@H]2O[C@H](C)C[C@H](N(C)C)[C@H]2O)[C@](C)(O)C[C@H]1C [Gamithromycin]")
"≤ 1 µg/mL"
>>> measuredresult("CC[C@H]1OC(=O)C[C@@H](O)[C@H](C)[C@@H](O[C@@H]2O[C@H](C)[C@@H](O[C@H]3C[C@@](C)(O)[C@@H](O)[C@H](C)O3)[C@H](N(C)C)[C@H]2O)[C@@H](CC=O)C[C@@H](C)C(=O)/C=C/C(C)=C/[C@@H]1CO[C@@H]1O[C@H](C)[C@@H](O)[C@@H](OC)[C@H]1OC [Tylosin]")
"> 32 µg/mL"

====

Tested on: Pasteurella multocida
assayName: minimum inhibitory concentration (MIC)
measurementParameters: isolate (source animal id): 124
Below: a set of entries, each annotated with reported minimum inhibitory concentration.
measurementName: minimum inhibitory concentration (µg/mL)

>>> measuredresult("CN[C@@H]1[C@H](O)[C@H](NC)[C@H]2O[C@@]3(O)C(=O)C[C@@H](C)O[C@H]3O[C@@H]2[C@H]1O")
32
>>> measuredresult("CCCN1C[C@H](C)[C@@H](O)[C@](C)(O)[C@@H](CC)OC(=O)[C@H](C)[C@@H](O[C@H]2C[C@@](C)(OC)[C@@H](O)[C@H](C)O2)[C@H](C)[C@@H](O[C@@H]2O[C@H](C)C[C@H](N(C)C)[C@H]2O)[C@](C)(O)C[C@H]1C")
8
>>> measuredresult("CC1(C)S[C@@H]2[C@H](NC(=O)[C@H](N)c3ccccc3)C(=O)N2[C@H]1C(=O)O")
0.5

====

System: Histophilus somni
assayName: minimum inhibitory concentration (MIC)
measurementParameters: isolate (source animal id): 272
minimum inhibitory concentration for assorted compounds
measurementName: minimum inhibitory concentration

>>> measuredresult("CN(C)[C@@H]1C(O)=C(C(N)=O)C(=O)[C@@]2(O)C(O)=C3C(=O)c4c(O)cccc4[C@@](C)(O)[C@H]3C[C@@H]12")
"> 8 µg/mL"
>>> measuredresult("CC1(C)S[C@@H]2[C@H](NC(=O)Cc3ccccc3)C(=O)N2[C@H]1C(=O)O")
"8 µg/mL"
>>> measuredresult("CC[C@H]1OC(=O)C[C@@H](O)[C@H](C)[C@@H](O[C@@H]2O[C@H](C)[C@@H](O[C@H]3C[C@@](C)(O)[C@@H](O)[C@H](C)O3)[C@H](N(C)C)[C@H]2O)[C@@H](CC=O)C[C@@H](C)C(=O)/C=C/C(C)=C/[C@@H]1CO[C@@H]1O[C@H](C)[C@@H](O)[C@@H](OC)[C@H]1OC")
"4 µg/mL"
>>> measuredresult("CCCN1C[C@H](C)[C@@H](O)[C@](C)(O)[C@@H](CC)OC(=O)[C@H](C)[C@@H](O[C@H]2C[C@@](C)(OC)[C@@H](O)[C@H](C)O2)[C@H](C)[C@@H](O[C@@H]2O[C@H](C)C[C@H](N(C)C)[C@H]2O)[C@](C)(O)C[C@H]1C")
"≤ 1 µg/mL"
>>> measuredresult("NC[C@@H]1O[C@H](O[C@H]2[C@@H](O)[C@H](O[C@@H]3[C@@H](O)[C@H](N)C[C@H](N)[C@H]3O[C@H]3O[C@H](CN)[C@@H](O)[C@H](O)[C@H]3N)O[C@@H]2CO)[C@H](N)[C@@H](O)[C@@H]1O")
"> 32 µg/mL"
>>> measuredresult("CS(=O)(=O)c1ccc([C@@H](O)[C@@H](CF)NC(=O)C(Cl)Cl)cc1")
"≤ 0.25 µg/mL"
